Data provenance is ChEMBL document CHEMBL1139336.

molecular target: Cannabinoid receptor 1 (Homo sapiens, UniProt P21554); experiment: Agonist activity at human CB1 receptor; format: functional
Sequence (P21554 whole entry): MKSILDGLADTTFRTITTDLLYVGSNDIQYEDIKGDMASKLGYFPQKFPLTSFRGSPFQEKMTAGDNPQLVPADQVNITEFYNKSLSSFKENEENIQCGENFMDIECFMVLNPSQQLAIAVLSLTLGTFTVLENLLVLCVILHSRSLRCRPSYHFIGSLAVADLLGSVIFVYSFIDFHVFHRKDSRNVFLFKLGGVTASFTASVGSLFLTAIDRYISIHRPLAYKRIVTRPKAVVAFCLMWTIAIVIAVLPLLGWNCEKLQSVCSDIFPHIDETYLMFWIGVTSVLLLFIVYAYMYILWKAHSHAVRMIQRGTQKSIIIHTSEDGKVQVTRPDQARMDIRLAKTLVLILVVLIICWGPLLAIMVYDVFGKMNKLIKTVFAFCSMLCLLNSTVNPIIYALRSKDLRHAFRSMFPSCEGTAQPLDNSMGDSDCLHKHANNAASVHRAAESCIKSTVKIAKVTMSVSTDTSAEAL
pEC50: −log10 of the molar value.
Measured property: pEC50

Known results for molecules:
With Cannabinoid receptor 1 (Homo sapiens, UniProt P21554) as the test system, provide measured pEC50 for this molecule: CCn1c2ccccc2c2cc(NC(=O)CCc3nc(-c4ccccc4F)no3)ccc21
< 5.70

With Cannabinoid receptor 1 (Homo sapiens, UniProt P21554) as the test system, provide measured pEC50 for this molecule: CCn1c2ccccc2c2cc(NC(=O)C3(S(=O)(=O)c4ccccc4)CC3)ccc21
6.41

Proceeding to the next molecule to report its pEC50.
With Cannabinoid receptor 1 (Homo sapiens, UniProt P21554) as the test system, provide measured pEC50 for this molecule: O=C(Nc1cnc2ccccc2c1)C1(S(=O)(=O)c2ccccc2)CC1
< 5.00
